Read-out: Fatty Acid-Binding Protein 1 (FABP1), FABP1 (gene 2168)
Test name: LTEA_HepaRG_FABP1: Life Technologies and Expression Analysis (LTEA) Assay for Fatty Acid-Binding Protein 1 (FABP1) using HepaRG (AID 2283494)
Run parameters: mRNA level, 48 h; actives raise or lower the signal
Method: LTEA_HepaRG is a cell based, multiplexed-readout assay that uses HepaRG, a human liver cell line, with measurements taken at 48 hours after chemical dosing on a 96-well plate.LTEA_HepaRG_FABP1 is one of 102 assay component(s) measured in the LTEA HepaRG cell culture assay. It is a marker of Steatosis.Data from the assay component LTEA_HepaRG_FABP1 was analyzed into 1 endpoint. […]
Calls of active or inactive are those of the source. How the source made its calls: active means hit-call score of the fitted dose curve at least 0.9, where 1 is the maximum; inactive means score below 0.9.
Returns: one label drawn from yes (1) for active, no (0) for inactive

{"columns": ["Compound", "Qualitative label"],
 "data": [
  ["CC(Cl)(Cl)C(=O)O", "no (0)"]
]}

Q) Each compound tested received a call. Report the one for OCC1CO1 (configuration not stated) .
A) no (0)

Q) Each compound tested received a call. Report the one for CSC(C)(C)C=NO .
A) no (0)

Q) Each compound tested received a call. Report the one for CC(C)(C)c1ccc(O)cc1 .
A) no (0)

Q) Each compound tested received a call. Report the one for Nc1ccc2ccccc2c1 .
A) yes (1)

Q) Each compound tested received a call. Report the one for O=[N+]([O-])c1ccc(Cl)c(Cl)c1 .
A) no (0)

Q) Each compound tested received a call. Report the one for CC(C)(C)OOC(C)(C)C .
A) no (0)

Q) Each compound tested received a call. Report the one for CCC(C)(C)c1ccc(O)cc1 .
A) no (0)

Q) Each compound tested received a call. Report the one for c1ccc(OP(Oc2ccccc2)Oc2ccccc2)cc1 .
A) no (0)

Q) Each compound tested received a call. Report the one for O=P1(N(CCCl)CCCl)NCCCO1 (configuration not stated) .
A) no (0)

Q) Each compound tested received a call. Report the one for Nc1ccc(Cl)cc1 .
A) no (0)
